Reference for the values: patent US20120172295A1

target: glucagon receptor (UniProt P47871 26-477, limits assumed); assay: cell-based or functional assay
Sequence (P47871 26-477 limits assumed): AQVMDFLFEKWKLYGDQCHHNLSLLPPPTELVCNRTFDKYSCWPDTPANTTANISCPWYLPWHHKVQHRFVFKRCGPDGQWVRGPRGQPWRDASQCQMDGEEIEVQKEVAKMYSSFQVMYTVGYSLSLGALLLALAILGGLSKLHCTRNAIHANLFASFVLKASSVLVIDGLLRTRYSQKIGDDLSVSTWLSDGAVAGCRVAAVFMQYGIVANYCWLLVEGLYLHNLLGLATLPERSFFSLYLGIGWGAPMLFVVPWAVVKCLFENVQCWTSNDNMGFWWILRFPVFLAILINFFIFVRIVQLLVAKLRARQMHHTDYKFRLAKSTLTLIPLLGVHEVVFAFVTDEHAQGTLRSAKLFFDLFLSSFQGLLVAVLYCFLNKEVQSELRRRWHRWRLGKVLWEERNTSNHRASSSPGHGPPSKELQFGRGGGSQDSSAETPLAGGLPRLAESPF
Starred links: 1 amine or outer side, 2 acyl side, 3 side chain; linkers in the order of their positions; H or OH if unused. Non-standard residues stand in square brackets, D forms with d. Groups on a side chain read outwards from the residue. No end group written: not given here. *: point of attachment. γGlu = O=C(O)[C@H](CCC(=O)[*:2])N[*:1]; Palmitoyl = CCCCCCCCCCCCCCCC(=O)*; Myristoyl = CCCCCCCCCCCCCC(=O)*; Aib = CC(C)(N)C(=O)O
Measured EC50, listed per entry for reference.

Consider the following illustrative entries.
binder: H[Aib]QGTFTSDK([Ala-Ala-Palmitoyl])SKYLD[Aib]RRAQDFVQWLMNT-NH2 [Peptide 82 (SEQ ID NO: 564)]
result: 0.024 nM
//
binder: H[Aib]QGTFTSDK(Palmitoyl)SKYLD[Aib]RRAQDFVQWLMNT-NH2 [Peptide 50 (SEQ ID NO: 563)]
result: 0.572 nM
//
binder: H[Aib]QGTFTSDK([γGlu-γGlu-Myristoyl])SKYLD[Aib]RRAQDFVC(PEG 40 kDa)WLMNT-NH2 [Peptide 78* (SEQ ID NO: 571)]
result: 0.319 nM

For this binder ( H[Aib]QGTFTSDK([Ala-Ala-Palmitoyl])SKYLD[Aib]RRAQDFVC(PEG 40 kDa)WLMNT-NH2 [Peptide 79* (SEQ ID NO: 575)] ), measured EC50 is 0.102 nM
